Target: T1, CaBdf1 BD2 (GST-tagged, wild-type) (Candida albicans (strain SC5314 / ATCC …, UniProt Q5A4W8))
T1 chain: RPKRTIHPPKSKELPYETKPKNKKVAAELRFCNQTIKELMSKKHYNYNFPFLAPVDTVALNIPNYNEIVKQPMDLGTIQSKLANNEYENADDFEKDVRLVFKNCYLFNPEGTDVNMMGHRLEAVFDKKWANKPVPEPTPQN
Assay: histone peptide array (Active Motif MODified), 1 uM GST-tagged bromodomain, anti-GST detection, normalized mean intensity
Square brackets hold non-standard residues; d marks the D form. Ends that are not written are not given here. pS = N[C@@H](COP(=O)(O)O)C(=O)O
recorded metric: binding score
A bare number is all that is needed in reply.

Below, 3 binders whose answers are already recorded.
Ask: If you can, please state the reported binding score value of ARTKQTARKSTGGKAPRKQ (A R T K Q T A R K pS T G G K A P R K Q) .
Reply: 0.00074

Ask: Can you share its binding score? I mean this binder: ARTKQTARKSTGGKAPRKQ (A Rme2s T Kme3 Q T A Rme2s Kme2 S T G G K A P R K Q)
Reply: 0.00407

Ask: Please give the measured binding score for this binder: [pS]GRGKQGGKARAK(Ac)AKSRSS [H2a 1-19]
Reply: 0.02

New cases:
Ask: Quick one: binding score for PDPAKSAPAPKKGSK(Ac)KAVT [H2B 1-19] ?
Reply: 0.00481
